Entries annotated with measured Chromogenic IC50 ratio mouse/human
Target: T1, mouse PAI-1 (mouse, UniProt P22777 24-401)
T1 sequence: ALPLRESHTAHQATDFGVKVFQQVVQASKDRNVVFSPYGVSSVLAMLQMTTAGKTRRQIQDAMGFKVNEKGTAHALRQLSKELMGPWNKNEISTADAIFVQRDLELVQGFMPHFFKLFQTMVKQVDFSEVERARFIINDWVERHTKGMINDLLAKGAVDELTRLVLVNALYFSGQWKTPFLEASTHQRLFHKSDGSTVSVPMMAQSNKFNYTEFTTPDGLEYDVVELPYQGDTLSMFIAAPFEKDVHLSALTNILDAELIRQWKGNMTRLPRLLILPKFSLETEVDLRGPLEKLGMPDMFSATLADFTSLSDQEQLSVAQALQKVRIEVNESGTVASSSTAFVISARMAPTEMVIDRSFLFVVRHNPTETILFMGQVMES
Test: cell-based or functional assay
measuredQuantity: Chromogenic IC50 ratio mouse/human (fold)

binder	unitName	measuredResult
Antibody 12 scFv (scFv) QVQLQQSGAEVKKPGSSVKVSCKASGGTFSSYAISWVRQAPGQGLEWMGGIIPTFPTANYAQKFQGRVTITADESTSTAYMELSGLRSEDTAVYYCAREKRQWLEGHFDYWGRGTPVTVSSDIQMTQSPSFLSASIGDRVTITCRASEGIYHNLAWYQQKPGKAPKLLIYRASSLASGAPSRFSGSGSGTDFTLTISSLQPDDFATYYCQQYSNYPLTFGGGTKLEIK	fold	12.2
Antibody 13 scFv (scFv) QVQLQQSGAEVKKPGSSVKVSCKASGGTFSSYAISWVRQAPGQGLEWMGGIIPTFGTANYAQKFQGRVTITADESTSTAYMELSDLRSEDTAVYYCAREKRQWLEGHFDYWGRGTPVTVSSDIQMTQSPSFLSASIGDRVTITCRASEGIYHSLAWYQQKPGKAPKLLIYRASSLASGAPSRFSGSGSGTDFTLTISSLQPDDFATYYCQQYSNYPLTFGGGTKLEIK	fold	85.8
